# Species on record: Rattus norvegicus
# Assay explanation: DrugMatrix - Regimen: Daily Repeat
# Type: toxicity, organism-based, Sprague-Dawley
# Parameters: regimen Daily Repeat, gender Male, age 6-8 weeks
# Conditions used: in vivo, sc, 0 mg/kg, 120 h, tissue Blood, route subcutaneous, dose level Control, time 5 day, […]
Metric: ABSOLUTE MONOCYTE (CELLS/uL)
Record the value in CELLS/uL, omitting the unit from your answer.

Consider the following illustrative entries.
{"Compound": "CCN(CC)CCOCCC1=CCC2CC1C2(C)C (stereo not given)", "ABSOLUTE MONOCYTE [CELLS/uL]": 172.83}
{"Compound": "Oc1c(Cl)cc(Cl)c(Cl)c1Cc1c(O)c(Cl)cc(Cl)c1Cl", "ABSOLUTE MONOCYTE [CELLS/uL]": 253.5}
{"Compound": "CCC(=O)O[C@]1(C(=O)CCl)[C@@H](C)C[C@H]2[C@@H]3CCC4=CC(=O)C=C[C@]4(C)[C@@]3(F)[C@@H](O)C[C@@]21C [CLOBETASOL PROPIONATE]", "ABSOLUTE MONOCYTE [CELLS/uL]": 64.33}

What value of ABSOLUTE MONOCYTE has been reported for the following compound? CC(C)(C)CC(C)(C)c1ccc(OCCOCC[N+](C)(C)Cc2ccccc2)cc1.[Cl-] [BENZETHONIUM CHLORIDE] 253.5

Moving on to the next compound: O=C(Nc1ccc(Br)cc1)c1cc(Br)cc(Br)c1O 64.33

---

# Species: Rattus norvegicus
# Assay explanation: DrugMatrix - Regimen: Daily Repeat
# Assay type: toxicity, organism-based, Sprague-Dawley
# Set-up: regimen Daily Repeat, gender Male, age 6-8 weeks
# Conditions used: in vivo, po, 0 mg/kg, 120 h, tissue Blood, route oral GAVAGE, dose level Control, time 5 day, vehicle .5 % CMC
Metric: ERYTHROCYTE COUNT (x10E6/uL)
Record the value in x10E6/uL, omitting the unit from your answer.

{"Molecule": "NC1CCN(c2nc3c(cc2F)c(=O)c(C(=O)O)cn3-c2ccc(F)cc2F)C1 (centres undefined) [TOSUFLOXACIN]", "Metric": "ERYTHROCYTE COUNT", "Numeric value": 6.96}

What value of ERYTHROCYTE COUNT has been reported for the following molecule? CC(C(=O)O)c1ccc2oc(-c3ccc(Cl)cc3)nc2c1 (centres undefined) [BENOXAPROFEN] 6.99

Moving on to the next molecule: O=C1C(CC[S+]([O-])c2ccccc2)C(=O)N(c2ccccc2)N1c1ccccc1 (centres undefined) [SULFINPYRAZONE] 5.52

Moving on to the next molecule: CCN(CC)CCOc1ccc(/C(=C(/Cl)c2ccccc2)c2ccccc2)cc1 [ENCLOMIPHENE] 5.78

---

# Species on record: Rattus norvegicus
# Assay explanation: DrugMatrix - Regimen: Daily Repeat
# Type: toxicity, organism-based, Sprague-Dawley
# Set-up: regimen Daily Repeat, gender Male, age 6-8 weeks
# Conditions used: in vivo, sc, 2 mg/kg, 72 h, tissue Blood, route mini-PUMP - SUBCUTANEOUS, dose level High, time 3 day, vehicle 100 % SALINE
Metric: ABSOLUTE LYMPHOCYTE
// unit must come after the numeric part

What value of ABSOLUTE LYMPHOCYTE has been reported for the following compound? CC(C)NCC(O)c1ccc(O)c(O)c1 (stereo unspecified) [ISOPROTERENOL] 13000 cells/µL
